Reference source: ChEMBL document CHEMBL2311285

Listed compounds paired with reported pIC50
Target: Bcl-2-like protein 1 (Homo sapiens, UniProt Q07817)
Sequence (Q07817 whole entry): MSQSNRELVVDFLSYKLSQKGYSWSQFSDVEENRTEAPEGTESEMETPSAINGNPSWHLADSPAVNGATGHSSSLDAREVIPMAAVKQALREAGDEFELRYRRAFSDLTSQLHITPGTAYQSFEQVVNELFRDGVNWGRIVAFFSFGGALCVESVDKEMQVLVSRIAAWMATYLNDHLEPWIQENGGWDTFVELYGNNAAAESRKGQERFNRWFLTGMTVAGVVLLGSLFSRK
pIC50: −log10 of the molar value.

ENTRY SMILES | pIC50
COc1ccc(Sc2ccc3c4c(cccc24)C2=NC(=O)C(C#N)=C23)cc1 | 6.08
CC(C)c1ccc(Oc2ccc3c4c(cccc24)C2=NC(=O)C(NCCCc4ccccc4)=C23)cc1 | 7.43
N#CC1=C2C(=NC1=O)c1cccc3c(N4CCSCC4)ccc2c13 | 6.20
CCCCNC1=C2C(=NC1=O)c1cccc3c(Sc4ccc(OC)cc4)ccc2c13 | 6.50
CC(C)c1ccc(Oc2ccc3c4c(cccc24)C2=NC(=O)C(C#N)=C23)cc1 | 6.19
O=C1N=C2C(=C1NCCCc1ccccc1)c1ccc(N3CCSCC3)c3cccc2c13 | 7.37
CCCCNC1=C2C(=NC1=O)c1cccc3c(Sc4ccc(N)cc4)ccc2c13 | 6.78
CCCCNC1=C2C(=NC1=O)c1cccc3c(N4CCSCC4)ccc2c13 | 6.77
O=C1N=C2C(=C1NCCCc1ccccc1)c1ccc(Sc3ccc(OO)cc3)c3cccc2c13 | 7.28
